Data origin: patent US20220024975A1

Listing of entries alongside the reported MFI (specific MFI ratio, sample/no-ligand).
Biological target: T1, αvβ6 integrin (human, UniProt P06756 31-1048; P18564 22-788)
T1 construct: whole, on cells; target is the endogenous integrin on αvβ6 positive-control cell lines; also called Integrin alpha-v beta-6
T1 sequence (P06756 31-1048, chain 1 of 2): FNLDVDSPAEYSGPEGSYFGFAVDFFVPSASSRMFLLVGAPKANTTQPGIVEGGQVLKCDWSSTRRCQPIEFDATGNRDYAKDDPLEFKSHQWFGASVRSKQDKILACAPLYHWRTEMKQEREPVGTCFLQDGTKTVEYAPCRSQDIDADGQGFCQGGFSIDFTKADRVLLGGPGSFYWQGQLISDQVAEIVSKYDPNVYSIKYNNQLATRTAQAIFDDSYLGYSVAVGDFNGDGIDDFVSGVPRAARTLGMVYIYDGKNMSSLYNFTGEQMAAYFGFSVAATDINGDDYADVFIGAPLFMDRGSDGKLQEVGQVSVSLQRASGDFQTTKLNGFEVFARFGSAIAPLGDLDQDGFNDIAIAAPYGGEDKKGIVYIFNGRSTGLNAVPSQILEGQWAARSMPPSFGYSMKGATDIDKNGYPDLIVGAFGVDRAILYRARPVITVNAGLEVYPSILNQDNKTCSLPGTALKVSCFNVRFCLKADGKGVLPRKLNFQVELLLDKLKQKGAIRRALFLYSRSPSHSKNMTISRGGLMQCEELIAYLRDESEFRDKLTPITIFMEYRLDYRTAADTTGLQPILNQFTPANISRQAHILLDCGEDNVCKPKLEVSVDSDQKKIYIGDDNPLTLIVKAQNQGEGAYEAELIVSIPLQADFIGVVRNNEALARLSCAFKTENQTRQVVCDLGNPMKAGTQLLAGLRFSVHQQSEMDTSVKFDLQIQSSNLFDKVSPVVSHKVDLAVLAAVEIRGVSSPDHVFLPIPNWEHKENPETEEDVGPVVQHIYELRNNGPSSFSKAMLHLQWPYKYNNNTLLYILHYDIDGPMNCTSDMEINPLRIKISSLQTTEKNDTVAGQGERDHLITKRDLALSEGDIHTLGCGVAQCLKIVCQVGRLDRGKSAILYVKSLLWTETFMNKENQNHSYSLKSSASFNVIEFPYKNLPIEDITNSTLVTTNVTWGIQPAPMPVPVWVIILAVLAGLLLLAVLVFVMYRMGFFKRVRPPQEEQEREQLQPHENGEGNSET
T1 sequence (P18564 22-788, chain 2 of 2): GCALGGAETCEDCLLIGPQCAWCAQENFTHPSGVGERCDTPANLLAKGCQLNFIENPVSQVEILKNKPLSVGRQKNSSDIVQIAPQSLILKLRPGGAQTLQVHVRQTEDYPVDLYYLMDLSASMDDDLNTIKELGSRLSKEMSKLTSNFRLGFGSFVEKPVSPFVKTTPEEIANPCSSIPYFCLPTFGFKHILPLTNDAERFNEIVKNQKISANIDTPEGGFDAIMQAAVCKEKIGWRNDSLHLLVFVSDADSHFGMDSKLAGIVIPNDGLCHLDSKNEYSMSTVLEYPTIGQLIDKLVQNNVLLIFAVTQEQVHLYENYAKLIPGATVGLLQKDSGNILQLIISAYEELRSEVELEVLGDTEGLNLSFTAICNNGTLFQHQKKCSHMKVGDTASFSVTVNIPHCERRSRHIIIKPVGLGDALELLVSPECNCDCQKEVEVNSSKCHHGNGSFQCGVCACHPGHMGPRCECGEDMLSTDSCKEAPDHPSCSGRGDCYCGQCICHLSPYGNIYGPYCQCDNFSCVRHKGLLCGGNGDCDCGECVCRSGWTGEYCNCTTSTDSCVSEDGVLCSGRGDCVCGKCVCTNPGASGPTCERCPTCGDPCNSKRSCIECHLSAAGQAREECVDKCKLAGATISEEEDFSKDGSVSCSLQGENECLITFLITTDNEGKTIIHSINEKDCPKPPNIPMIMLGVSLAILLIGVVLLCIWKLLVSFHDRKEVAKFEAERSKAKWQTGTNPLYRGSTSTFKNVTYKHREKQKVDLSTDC
Assay: flow cytometry, Cy5-polymer conjugate 5 µg/ml, H2009 cells
No end group written: not given here. MeO‑PEG8 = N-terminal cap, methoxy-PEG with 8 ethylene glycol units
Number only, in ratio; omit the unit.

binder RGELATLRQL (not fully specified; printed as RGELATLRQL (RGE control), Negative control; Tested as ligand-(PEG)8-K-HyNic conjugated to Cy5-labelled 1170-100B polymer) [RGELATLRQL (RGE control)] , MFI (specific MFI ratio, sample/no-ligand) observed: 0.99

Quick note, MFI (specific MFI ratio, sample/no-ligand) for Me-RGDLATLRQL (not fully specified; printed as Me-RGDLATLRQL, Tested as ligand-(PEG)8-K-HyNic conjugated to Cy5-labelled 1170-100B polymer) [Me-RGDLATLRQL] landed at 4.8

Kindly note the recorded MFI (specific MFI ratio, sample/no-ligand) for RGDLATLRQLEEEK(HyNic) (also: conjugated via HyNic to Cy5-labelled 1170-100B polymer, places HyNic at (1)..(1) as C-terminal, Conjugated to Cy5-labelled 1170-100B polymer; printed with its own K-(HyNic)) [RGDLATLRQLEEEK-(HyNic)] , which is 6.5

So, RGDLATL (not fully specified, Tested as ligand-(PEG)8-K-HyNic conjugated to Cy5-labelled 1170-100B polymer; also called natural peptide) ? Its MFI (specific MFI ratio, sample/no-ligand) was 2.9

Continuing:
Value of MFI (specific MFI ratio, sample/no-ligand) reported for the binder {MeO‑PEG8}-RGDLATLRQL (not fully specified; printed as MeO-PEG8-RGDLATLRQL, Tested as ligand-(PEG)8-K-HyNic conjugated to Cy5-labelled 1170-100B polymer) [MeO-PEG8-RGDLATLRQL] is 2.5
